# assayText: Cell selectivity, Trypan blue cell viability, LC50
# Assay type: cell-based, mouse
# assaySetup: mouse, NIH-3T3 fibroblasts; 50% cell mortality after 24 h incubation, medium without serum; read-out: Lethal Concentration (LC50), NIH-3T3 fibroblasts
Square brackets hold non-standard residues; d marks the D form. Peptide text beside a SMILES is read from it.
CC50 at 24 h by entry:
metric: CC50 at 24 h (µg/mL)

>>> observedvalue("CC(C)C[C@H](NC(=O)[C@H](CCCNC(=N)N)NC(=O)[C@@H](CC(C)C)NC(=O)[C@H](CC(C)C)NC(=O)[C@@H](N)CCCCN)C(=O)N[C@@H](CC(C)C)C(=O)N[C@H](CCCCN)C(=O)N[C@H](CCCCN)C(=O)N[C@@H](CC(C)C)C(=O)N[C@H](CC(C)C)C(=O)N[C@@H](CCCNC(=N)N)C(=O)N[C@@H](CC(C)C)C(=O)N[C@H](CC(C)C)C(=O)N[C@@H](CC(C)C)C(=O)N[C@@H](CCCCN)C(N)=O [Peptide 9, [D]-L^3,10,13,K^7,8-K4R2L9] (H-KL[dL]RLL[dK][dK]L[dL]RL[dL]LK-NH2)")
30
>>> observedvalue("CC(C)C[C@H](NC(=O)[C@H](CCCCN)NC(=O)[C@H](CC(C)C)NC(=O)[C@@H](CC(C)C)NC(=O)[C@H](CC(C)C)NC(=O)[C@@H](N)CCCCN)C(=O)N[C@@H](CC(C)C)C(=O)N[C@H](CCCCN)C(=O)N[C@H](CCCCN)C(=O)N[C@@H](CC(C)C)C(=O)N[C@@H](CC(C)C)C(=O)N[C@@H](CCCCN)C(=O)N[C@H](CC(C)C)C(=O)N[C@@H](CC(C)C)C(=O)N[C@@H](CCCCN)C(N)=O [Peptide 2, [D]-L^3,13,K^8,9-K6L9] (H-KL[dL]LKLL[dK][dK]LLK[dL]LK-NH2)")
30
>>> observedvalue("CC(C)C[C@H](NC(=O)CN)C(=O)N[C@H](CC(C)C)C(=O)N[C@@H](CCCCN)C(=O)N[C@@H](CC(C)C)C(=O)N[C@@H](CC(C)C)C(=O)N[C@H](CCCCN)C(=O)N[C@H](CCCCN)C(=O)N[C@@H](CC(C)C)C(=O)N[C@H](CC(C)C)C(=O)N[C@@H](CCCCN)C(=O)N[C@@H](CC(C)C)C(=O)N[C@H](CC(C)C)C(=O)N[C@@H](CC(C)C)C(=O)N[C@@H](CCCCN)C(=O)N[C@@H](CCCCN)C(N)=O [Peptide 8, [D]-L^3,10,13,K^7,8-GK6L9] (H-GL[dL]KLL[dK][dK]L[dL]KL[dL]LKK-NH2; N-terminus assumed)")
30

Cited source: patent US20040053847A1
